# targetOrSystem: hemoglobin in stool samples (Homo sapiens, UniProt P68871+P69905)
# Sequence (P69905 2-142 limits assumed): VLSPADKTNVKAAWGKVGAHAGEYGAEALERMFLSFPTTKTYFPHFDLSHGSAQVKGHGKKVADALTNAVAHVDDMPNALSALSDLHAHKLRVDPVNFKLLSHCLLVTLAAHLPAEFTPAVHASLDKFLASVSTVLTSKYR
# Sequence (P68871 2-147 limits assumed): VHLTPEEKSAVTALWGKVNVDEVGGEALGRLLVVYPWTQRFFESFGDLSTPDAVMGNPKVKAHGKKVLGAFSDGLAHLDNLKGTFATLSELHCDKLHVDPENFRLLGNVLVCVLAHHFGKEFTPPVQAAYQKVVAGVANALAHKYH
# assayDetails: 3-Day shipping simulation, hemoglobin % recovery by ELISA;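 also: stool samples put through shipping stress in a thermal cycler, hemoglobin quantified by ELISA before and after, stability given as post-stress % of the pre-stress level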
# Parameters: from tissue; host or cells: stool samples
# statedConditions: additive concentration 30 mM
metricName: Results

input: // Results lookup, key: [Ca+2].[Cl-].[Cl-] [Calcium Chloride]
output: Calcium cation shows

input: // Results lookup, key: [Cl-].[Cl-].[Mg+2] [Magnesium Chloride]
output: Magnesium Cation shows

input: // Results lookup, key: O=S(=O)([O-])[O-].[Mg+2] [Magnesium Sulfate]
output: Magnesium Cation shows

input: // Results lookup, key: CCC(=O)[O-].CCC(=O)[O-].[Ca+2] [Calcium Propionate]
output: Calcium cation shows
